Each recorded value in this set is attributed to patent US9233921B2.

# System: mD4-VV hybrid virus
# Method description: microbe, parasite or virus in culture
# Assay type: cell-based
# Condition context: read-out: IC50 mD4-VV hybrid virus
Readout: IC50 (nM)
Could you give me the number in nM? Just the number is fine.

Record Cc1ccc2c(Sc3cc(Cl)cc(Cl)c3)c(CCCC(N)=O)[nH]c2c1 [Compound 24c] has mD4-VV hybrid virus IC50 equal to 199

Record Cc1ccc2c(Sc3cc(Cl)cc(Cl)c3)c(CCC(N)=O)[nH]c2c1 [Compound 24a] has mD4-VV hybrid virus IC50 equal to 30

Record Cc1ccc2c(Sc3cc(Cl)cc(Cl)c3)c(CC(N)=O)[nH]c2c1 [Compound 24b] has mD4-VV hybrid virus IC50 equal to 97

###

# Tested on: vaccinia virus
# Method description: microbe, parasite or virus in culture
# Format: cell-based, Vaccinia virus (WR strain)
Readout: fold activity improvement over the parent 1

Lab book: fold activity improvement over the parent 1 of `Cc1ccc2c(Sc3ccc(Cl)cc3Cl)c(C(=O)O)[nH]c2c1` noted as 2-11 fold

Lab book: fold activity improvement over the parent 1 of `Cc1ccc2c(Sc3ccc(Cl)c(Cl)c3)c(C(=O)O)[nH]c2c1` noted as 2-11 fold

Lab book: fold activity improvement over the parent 1 of `Cc1cccc2c(Sc3ccc(Cl)c(Cl)c3)c(C(=O)O)[nH]c12` noted as 2-11 fold

Lab book: fold activity improvement over the parent 1 of `Cc1ccc2c(Sc3cc(Cl)cc(Cl)c3)c(C(=O)O)[nH]c2c1` noted as 2-11 fold

###

# Test system: vaccinia virus
# Method description: microbe, parasite or virus in culture
# Assay type: cell-based, Vaccinia virus (WR strain)
# Condition context: Orthopoxvirus vaccinia, BSC-1, read-out: IC50 (antiviral)
Readout: pIC50
In plain terms, pIC50 is the concentration in mol/L turned into minus its base-10 logarithm.

Lab book: pIC50 of `CCc1ccc2c(Sc3ccc(Cl)cc3)c(C(=O)O)[nH]c2c1` noted as 4.44

Lab book: pIC50 of `Cc1ccc2c(Sc3cc(Cl)c(Cl)cc3Cl)c(C(=O)O)[nH]c2c1` noted as 4.60

Lab book: pIC50 of Cc1ccc2c(Sc3ccc(C(F)(F)F)cc3)c(C(=O)O)[nH]c2c1 [Compound 18g] noted as 4.48

Lab book: pIC50 of Cc1cccc2[nH]c(C(=O)O)c(Sc3cc(Cl)c(Cl)cc3Cl)c12 [Compound 30b] noted as 4.74

Lab book: pIC50 of `COC(=O)c1[nH]c2cccc(C)c2c1Sc1ccc(Cl)cc1` noted as 4.68

Lab book: pIC50 of `Cc1ccc2c(c1)c(Sc1ccc(Cl)cc1)c(C(=O)O)n2C` noted as 3.87

###

For each entry below, report its CC50 value.
# Method description: Cytotoxicity (CC50)
# Condition context: African green monkey, BSC-1 cells
Could you give me the number in µM? Just the number is fine.

Lab book: CC50 of `Cc1ccc(C)c2c(Sc3ccc(Cl)cc3)c(C(=O)O)[nH]c12` noted as 109

Lab book: CC50 of `CCc1ccc2c(Sc3cc(Cl)cc(Cl)c3)c(C(=O)O)[nH]c2c1` noted as 63

Lab book: CC50 of `O=C(O)c1[nH]c2cc(Cl)ccc2c1Sc1ccc(Cl)cc1` noted as 138

Lab book: CC50 of `COC(=O)c1[nH]c2cc(C)ccc2c1Sc1ccc(Cl)cc1` noted as 61

Lab book: CC50 of `COC(=O)c1[nH]c2c(C)cccc2c1Sc1ccc(Cl)cc1` noted as 32

Lab book: CC50 of Cc1ccc2c(Sc3ccc(C(F)(F)F)cc3)c(C(=O)O)[nH]c2c1 [Compound 18g] noted as 137

Lab book: CC50 of `Cc1ccc2c(Sc3cc(Cl)c(Cl)cc3Cl)c(C(=O)O)[nH]c2c1` noted as 78

Lab book: CC50 of Cc1cccc2c(Sc3cc(Cl)c(Cl)cc3Cl)c(C(=O)O)[nH]c12 [Compound 30a] noted as 93

Lab book: CC50 of `Cc1ccc2c(Sc3cc(Cl)cc(Cl)c3)c(C(=O)O)[nH]c2c1` noted as 75

Lab book: CC50 of Cc1ccc2c(Sc3cc(Cl)cc(Cl)c3)c(CCCC(N)=O)[nH]c2c1 [Compound 24c] noted as 243

Lab book: CC50 of `Cc1cccc2c(Sc3ccc(Cl)c(Cl)c3)c(C(=O)O)[nH]c12` noted as 150

Lab book: CC50 of `Cc1ccc2[nH]c(C(=O)O)c(Sc3ccc(Cl)cc3)c2c1` noted as 136

Lab book: CC50 of `O=C(O)c1[nH]c2ccccc2c1Sc1cc(Cl)cc(Cl)c1` noted as 133

Lab book: CC50 of `O=C(O)c1[nH]c2cc(Br)ccc2c1Sc1ccc(Cl)cc1` noted as 90

Lab book: CC50 of `Cc1ccc2c(Sc3ccc(Cl)cc3)c(C(=O)O)[nH]c2c1` noted as 192

Lab book: CC50 of Cc1cccc2[nH]c(C(=O)O)c(Sc3cc(Cl)c(Cl)cc3Cl)c12 [Compound 30b] noted as 65

Lab book: CC50 of `Cc1ccc2c(Sc3ccc(Cl)cc3Cl)c(C(=O)O)[nH]c2c1` noted as 129

Lab book: CC50 of Cc1ccc2c(Sc3ccc(Br)cc3)c(C(=O)O)[nH]c2c1 [Compound 18c] noted as 133

Lab book: CC50 of `Cc1ccc2c(Sc3ccc(Cl)c(Cl)c3)c(C(=O)O)[nH]c2c1` noted as 76

###

For each entry below, report its CC50 value.
# Test system: BSC-1 cells
# Method description: Cytotoxicity (CC50)
# Condition context: Table 5, mean ± SEM of triplicates
Could you give me the number in µM? Just the number is fine.

Record Cc1ccc2c(Sc3cc(Cl)cc(Cl)c3)c(CC(N)=O)[nH]c2c1 [Compound 24b] has BSC-1 cells CC50 equal to 26

Record Cc1ccc2c(Sc3cc(Cl)cc(Cl)c3)c(CCC(=O)O)[nH]c2c1 [Compound 24d] has BSC-1 cells CC50 equal to 36

Record CCCCCCNC(=O)CCc1[nH]c2cc(C)ccc2c1Sc1cc(Cl)cc(Cl)c1 [Compound 24e] has BSC-1 cells CC50 equal to 27

Record Cc1ccc2c(Sc3cc(Cl)cc(Cl)c3)c(CCC(N)=O)[nH]c2c1 [Compound 24a] has BSC-1 cells CC50 equal to 16

###

# Tested on: vaccinia virus
# Method description: microbe, parasite or virus in culture
# Type: cell-based, Vaccinia virus (WR strain)
# Condition context: Orthopoxvirus vaccinia, BSC-1, read-out: IC50 (antiviral)
For each entry below, report its IC50 value.
Could you give me the number in µM? Just the number is fine.

Lab book: IC50 of COC(=O)c1[nH]c2cc(C)ccc2c1Sc1ccc(Cl)cc1 [Compound 6] noted as 19

Lab book: IC50 of Cc1ccc(C)c2c(Sc3ccc(Cl)cc3)c(C(=O)O)[nH]c12 [Compound 1j] noted as 50

Lab book: IC50 of COC(=O)c1c(Sc2ccc(Cl)cc2)c2cc(C)ccc2n1C [Compound 4] noted as 163

Lab book: IC50 of O=C(O)c1[nH]c2ccccc2c1Sc1cc(Cl)cc(Cl)c1 [Compound 26] noted as 43

Lab book: IC50 of CCc1ccc2c(Sc3cc(Cl)cc(Cl)c3)c(C(=O)O)[nH]c2c1 [Compound 25] noted as 9

Lab book: IC50 of CCc1ccc2c(Sc3ccc(Cl)c(Cl)c3)c(C(=O)O)[nH]c2c1 [Compound 23] noted as 42

###

# System: vaccinia virus
# Method description: microbe, parasite or virus in culture
# Type: cell-based, Vaccinia virus (WR strain)
# Condition context: Orthopoxvirus vaccinia, BSC-1, read-out: IC50 (antiviral)
For each entry below, report its pIC50 value.
In plain terms, pIC50 is the concentration in mol/L turned into minus its base-10 logarithm.

Lab book: pIC50 of `CCn1c(C(=O)OC)c(Sc2ccc(Cl)cc2)c2cc(C)ccc21` noted as 4.41

Lab book: pIC50 of `Cc1ccc2c(Sc3ccc(Cl)cc3)c(C(=O)O)[nH]c2c1` noted as 4.09

Lab book: pIC50 of `COC(=O)c1[nH]c2c(C)cccc2c1Sc1ccc(Cl)cc1` noted as 4.64

Lab book: pIC50 of Cc1ccc2c(Sc3cccc(Cl)c3)c(C(=O)O)[nH]c2c1 [Compound 18a] noted as 4.29

Lab book: pIC50 of `CCn1c(C(=O)O)c(Sc2ccc(Cl)cc2)c2cc(C)ccc21` noted as 4.07

Lab book: pIC50 of Cc1cccc2c(Sc3cc(Cl)c(Cl)cc3Cl)c(C(=O)O)[nH]c12 [Compound 30a] noted as 4.68

Lab book: pIC50 of Cc1ccc2c(Sc3cccc(F)c3)c(C(=O)O)[nH]c2c1 [Compound 18b] noted as 4.25
